The measured values listed here are drawn from patent US3994908A.

- procedure.text: in vivo
- measurement.conditions: mouse, po
Kindly supply the reported LD50 values for the records listed here.
Unit mg/kg implied. Number only.

I'd like to know its LD50. The compound in question is CC(C(=O)O)c1ccnc(Oc2ccccc2)c1 (stereo not shown) 2250

Can you handle CC(C(=O)O)c1ccc(Oc2ccccc2)nc1 (stereo not shown) next? 1640

Can you handle CC(C(=O)O)c1ccc(Oc2ccc(Cl)cc2)nc1 (stereo not shown) next? 1150

Can you handle CC(=O)Oc1ccccc1C(=O)O [Aspirin, reference compound] next? 2000
